Origin of measurements: paper PMC12655551

# ASSAYED TARGET: BChE (Equus caballus, UniProt P81908)
# Construct: purchased Sigma-Aldrich, Hamburg, Germany; host or cells: equine serum
# Sequence (P81908 whole entry): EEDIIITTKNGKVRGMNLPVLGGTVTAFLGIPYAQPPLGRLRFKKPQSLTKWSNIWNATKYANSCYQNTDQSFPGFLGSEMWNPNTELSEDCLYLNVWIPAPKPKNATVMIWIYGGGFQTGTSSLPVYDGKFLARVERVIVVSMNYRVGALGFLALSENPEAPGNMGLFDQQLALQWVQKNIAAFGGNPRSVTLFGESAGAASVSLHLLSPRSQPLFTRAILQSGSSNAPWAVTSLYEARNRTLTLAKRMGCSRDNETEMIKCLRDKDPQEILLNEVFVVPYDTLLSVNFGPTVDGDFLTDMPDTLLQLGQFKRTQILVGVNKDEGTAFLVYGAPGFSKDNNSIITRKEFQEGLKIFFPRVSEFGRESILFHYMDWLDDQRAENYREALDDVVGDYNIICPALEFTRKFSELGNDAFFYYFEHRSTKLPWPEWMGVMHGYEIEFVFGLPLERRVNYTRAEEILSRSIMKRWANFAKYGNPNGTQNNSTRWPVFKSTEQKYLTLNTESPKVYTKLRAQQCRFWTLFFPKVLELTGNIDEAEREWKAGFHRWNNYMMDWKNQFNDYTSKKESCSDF
# ASSAY DETAILS: biochemical
# RECORDED CONDITIONS: means ± SD of three experiments; read-out: BChE IC50
pIC50: −log10 of the molar value.
VALUE KIND: pIC50

> print(dat)
                                    compound  measured
 1     CCC(C)Cn1c(C)ccc1C (stereo not drawn)      3.97
 2                 Cc1ccc(C)n1CCc1ccc(Cl)cc1    < 3.70
 3                     Cc1ccc(C)n1CCN1CCOCC1    < 3.70
 4                      Cc1ccc(C)n1-c1ccncc1      4.14
 5                    Cc1ccc(C)n1-c1ccccc1Br    < 3.70
 6  Cc1ccc(C)n1CC(O)c1ccc(O)cc1 (stereo not drawn)      4.95
 7  CCC(C(=O)O)n1c(C)ccc1C (stereo not drawn)    < 3.70
 8                   Cc1ccc(C)n1-c1ccc(O)cc1      3.76
 9             Cc1ccc(C)n1-c1ccc(CC(=O)O)cc1    < 3.70
10                  Cc1ccc(C)n1-c1ccc(Br)cc1    < 3.70
11  Cc1ccc(C)n1C(Cc1ccc(O)c(O)c1)C(=O)O (stereo not drawn)    < 3.70
12                      Cc1ccc(C)n1C(C)(C)CO    < 3.70
13  Cc1ccc(C)n1C(Cc1ccc(O)cc1)C(=O)O (stereo not drawn)    < 3.70
14                 COc1ccc(C)cc1-n1c(C)ccc1C      4.13
15           Cc1ccc(C)n1-c1ccc(O)c(C(=O)O)c1    < 3.70

----------
# ASSAYED TARGET: recombinant human MAO-B (hMAOB) (Homo sapiens)
# Sequence (P27338 whole entry): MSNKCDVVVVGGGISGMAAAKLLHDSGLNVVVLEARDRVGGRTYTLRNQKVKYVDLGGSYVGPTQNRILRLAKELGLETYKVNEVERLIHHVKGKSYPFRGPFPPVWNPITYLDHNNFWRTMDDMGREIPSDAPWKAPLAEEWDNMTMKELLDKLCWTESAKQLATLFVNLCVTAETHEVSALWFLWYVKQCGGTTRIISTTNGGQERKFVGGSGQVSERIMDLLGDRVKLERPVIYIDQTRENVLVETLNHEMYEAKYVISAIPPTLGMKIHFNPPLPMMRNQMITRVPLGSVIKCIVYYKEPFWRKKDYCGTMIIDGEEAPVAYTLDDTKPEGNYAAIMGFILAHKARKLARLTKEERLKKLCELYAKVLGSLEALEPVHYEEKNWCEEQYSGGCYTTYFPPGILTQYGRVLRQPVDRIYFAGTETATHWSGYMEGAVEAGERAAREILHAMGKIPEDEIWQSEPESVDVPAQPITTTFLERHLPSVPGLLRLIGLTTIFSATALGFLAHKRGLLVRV
# ASSAY DETAILS: biochemical
# RECORDED CONDITIONS: means ± SD of three experiments
VALUE KIND: IC50

> print(dat)
                                   compound                            assayed.target  value.kind  measured
1            Cc1ccc(C)n1C1CCN(Cc2ccccc2)CC1  recombinant human MAO-B (hMAOB) (Homo sapiens)        IC50  > 100 µM
2             Cc1ccc(C)n1-c1ccc(C(=O)O)cc1O  recombinant human MAO-B (hMAOB) (Homo sapiens)        IC50  > 100 µM
3     CCC(C)Cn1c(C)ccc1C (stereo not drawn)  recombinant human MAO-B (hMAOB) (Homo sapiens)        IC50  > 100 µM
4                  Cc1ccc(C)n1CCc1ccc(O)cc1  recombinant human MAO-B (hMAOB) (Homo sapiens)        IC50  > 100 µM
5                  Cc1ccc(C)n1-c1ccc(Br)cc1  recombinant human MAO-B (hMAOB) (Homo sapiens)        IC50  > 100 µM
6  CCC(C(=O)O)n1c(C)ccc1C (stereo not drawn)  recombinant human MAO-B (hMAOB) (Homo sapiens)        IC50  > 100 µM
